Task for the reader: assign each of the following compounds its reported EC50.
Biological target: NTCP (Homo sapiens, UniProt Q14973)
Experiment: HepG2-NTCP preS1 Binding Competition Assay
Details: HepG2-NTCP cells pre-treated 2 hours, FITC-labeled myristoylated preS1 peptide co-incubated 30 minutes, cell-surface fluorescence; read-out: Cellular EC50

Enquiry: Fill blank: measured EC50 of the compound `CNc1cc2c(cc1C(=O)N[C@H](C(=O)O)c1ccsc1)S(=O)(=O)N(C)[C@H](C1CCCCC1)CN2c1ccccc1` is ____.
Return: < 100 nM

Enquiry: Then `CN1[C@H](C2CCCCC2)CN(C2CCCCC2)c2ccc(CCC(C)(C)C(=O)O)cc2S1(=O)=O` ?
Return: < 100 nM

Enquiry: Then `CN1[C@H](C2CCCCC2)CN(c2ccccc2)c2cc(Cl)c(CC[C@@H](NC(=O)OCc3ccccc3)C(=O)O)cc2S1(=O)=O` ?
Return: 100 to 1000 nM

Enquiry: Then `CN1[C@H](C2CCCCC2)CN(c2ccccc2)c2cc(Cl)c(CCC3(C(=O)O)CC3)cc2S1(=O)=O` ?
Return: 100 to 1000 nM

Enquiry: Then `CN1[C@H](C2CCCCC2)CN(c2ccccc2)c2cc(Cl)c(CC[C@@H](NC(=O)OC(C)(C)C)C(=O)O)cc2S1(=O)=O` ?
Return: < 100 nM

Enquiry: Then `CN1[C@H](C2CCCCC2)CN(c2ccccc2)c2cc(Cl)c(CC[C@H](NC(=O)N3CCCCC3)C(=O)O)cc2S1(=O)=O` ?
Return: 100 to 1000 nM

Enquiry: Then `CN1[C@H](C2CCCCC2)CN(c2ccccc2)c2cc(Cl)c(C#CC3(C(=O)O)CC3)cc2S1(=O)=O` ?
Return: 100 to 1000 nM

----------
Task for the reader: assign each of the following compounds its reported pEC50.
Molecular target: NTCP (Homo sapiens, UniProt Q14973)
Experiment: HepG2-NTCP preS1 Binding Competition Assay
Conditions: HepG2-NTCP cells pre-treated 2 hours, FITC-labeled myristoylated preS1 peptide co-incubated 30 minutes, cell-surface fluorescence; read-out: Cellular EC50
pEC50: −log10 of the molar value.

Enquiry: Fill blank: measured pEC50 of the compound `CC(C)CS(=O)(=O)N[C@H](CCc1cc2c(cc1Cl)N(c1ccccc1)C[C@@H](C1CCCCC1)N(C)S2(=O)=O)C(=O)O` is ____.
Return: > 7.00

Enquiry: Then `CN1[C@H](C2CCCCC2)CN(c2ccccc2)c2cc(Cl)c(CC[C@H](NC(=O)OC(C)(C)C)C(=O)O)cc2S1(=O)=O` ?
Return: > 7.00

Enquiry: Then `CC(C)COC(=O)N[C@H](CCc1cc2c(cc1Cl)N(c1ccccc1)C[C@@H](C1CCCCC1)N(C)S2(=O)=O)C(=O)O` ?
Return: 6.00 to 7.00

Enquiry: Then `CCN(C)C(=O)N[C@@H](CCc1cc2c(cc1Cl)N(c1ccccc1)C[C@@H](C1CCCCC1)N(C)S2(=O)=O)C(=O)O` ?
Return: 6.00 to 7.00

Enquiry: Then `CCCCCOC(=O)N[C@H](CCc1cc2c(cc1Cl)N(c1ccccc1)C[C@@H](C1CCCCC1)N(C)S2(=O)=O)C(=O)O` ?
Return: 6.00 to 7.00

Enquiry: Then `CCCCN(C)C(=O)C(=O)N[C@@H](CCc1cc2c(cc1Cl)N(c1ccccc1)C[C@@H](C1CCCCC1)N(C)S2(=O)=O)C(=O)O` ?
Return: > 7.00

Enquiry: Then `CN1[C@H](C2CCCCC2)CN(c2ccccc2)c2cc(Cl)c(CCC(C)(C)C(=O)O)cc2S1(=O)=O` ?
Return: > 7.00

----------
Target: NTCP (Homo sapiens)
Assay: HepG2-NTCP preS1 Binding Competition Assay
Settings: HepG2-NTCP cells pre-treated 2 hours, FITC-labeled myristoylated preS1 peptide co-incubated 30 minutes, cell-surface fluorescence; read-out: Cellular EC50
pEC50: −log10 of the molar value.
REPORTED_METRIC: pEC50

Enquiry: Fill blank: measured pEC50 of the compound `CCCCNC(=O)C(=O)N[C@@H](CCc1cc2c(cc1Cl)N(c1ccccc1)C[C@@H](C1CCCCC1)N(C)S2(=O)=O)C(=O)O` is ____.
Return: > 7.00

Enquiry: Then `CCOC(=O)N[C@@H](CCc1cc2c(cc1Cl)N(c1ccccc1)C[C@@H](C1CCCCC1)N(C)S2(=O)=O)C(=O)O` ?
Return: 6.00 to 7.00

Enquiry: Then `CN1[C@H](C2CCCCC2)CN(c2ccccc2)c2cc(F)c(CCCC(=O)O)cc2S1(=O)=O` ?
Return: 6.00 to 7.00

Enquiry: Then `CCN(C)C(=O)N[C@H](CCc1cc2c(cc1Cl)N(c1ccccc1)C[C@@H](C1CCCCC1)N(C)S2(=O)=O)C(=O)O` ?
Return: 6.00 to 7.00

Enquiry: Then `CN1[C@H](C2CCCCC2)CN(c2ccccc2)c2cc(Cl)c(CC[C@H](NC(=O)OCc3ccccc3)C(=O)O)cc2S1(=O)=O` ?
Return: 6.00 to 7.00

Enquiry: Then `CN1[C@H](C2CCCCC2)CN(C2CCCCC2)c2cc(Cl)c(/C=C/C(C)(C)C(=O)O)cc2S1(=O)=O` ?
Return: 6.00 to 7.00

Enquiry: Then `CNc1cc2c(cc1C(=O)N[C@H](C(=O)O)C1CCCCC1)S(=O)(=O)N(C)[C@H](C1CCCCC1)CN2c1ccccc1` ?
Return: > 7.00

Enquiry: Then `CN1[C@H](C2CCCCC2)CN(c2ccccc2)c2cc(Cl)c(CC[C@@H](NC(=O)N3CCCCC3)C(=O)O)cc2S1(=O)=O` ?
Return: 6.00 to 7.00

Enquiry: Then `CNc1cc2c(cc1C(=O)N[C@H](C(=O)O)c1cccc(Cl)c1)S(=O)(=O)N(C)[C@H](C1CCCCC1)CN2c1ccccc1` ?
Return: > 7.00

Enquiry: Then `CN1[C@H](C2CCCCC2)CN(c2ccccc2)c2cc(Cl)c(CC[C@H](NC(=O)C(=O)N3CCCC3)C(=O)O)cc2S1(=O)=O` ?
Return: 6.00 to 7.00

Enquiry: Then `CNc1cc2c(cc1C(=O)NC1(C(=O)O)CC1)S(=O)(=O)N(C)[C@H](C1CCCCC1)CN2c1ccccc1` ?
Return: < 6.00

Enquiry: Then `CCCCCC(=O)N[C@@H](CCc1cc2c(cc1Cl)N(c1ccccc1)C[C@@H](C1CCCCC1)N(C)S2(=O)=O)C(=O)O` ?
Return: 6.00 to 7.00

Enquiry: Then `CC(C)CS(=O)(=O)N[C@@H](CCc1cc2c(cc1Cl)N(c1ccccc1)C[C@@H](C1CCCCC1)N(C)S2(=O)=O)C(=O)O` ?
Return: 6.00 to 7.00

----------
Biological target: NTCP (Homo sapiens, UniProt Q14973)
Sequence (Q14973 1-349): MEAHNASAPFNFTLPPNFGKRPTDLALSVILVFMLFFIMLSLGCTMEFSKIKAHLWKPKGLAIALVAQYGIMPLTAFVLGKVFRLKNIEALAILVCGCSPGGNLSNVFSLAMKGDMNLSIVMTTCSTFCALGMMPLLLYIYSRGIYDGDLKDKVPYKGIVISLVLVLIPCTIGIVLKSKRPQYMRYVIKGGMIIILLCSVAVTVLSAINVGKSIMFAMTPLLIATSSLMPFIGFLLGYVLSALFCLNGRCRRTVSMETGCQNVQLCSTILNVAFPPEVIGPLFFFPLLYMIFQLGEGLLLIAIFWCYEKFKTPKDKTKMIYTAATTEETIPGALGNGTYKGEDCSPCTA
Assay: HepG2-NTCP preS1 Binding Competition Assay
Conditions: HepG2-NTCP cells pre-treated 2 hours, FITC-labeled myristoylated preS1 peptide co-incubated 30 minutes, cell-surface fluorescence; read-out: Cellular EC50
REPORTED_METRIC: EC50

Enquiry: Fill blank: measured EC50 of the molecule `CNc1cc2c(cc1C(=O)N[C@@H](C(=O)O)c1cccc(Cl)c1)S(=O)(=O)N(C)[C@H](C1CCCCC1)CN2c1ccccc1` is ____.
Return: 100 to 1000 nM

Enquiry: Then `CCCCCCCCCOC(=O)N[C@H](CCc1cc2c(cc1Cl)N(c1ccccc1)C[C@@H](C1CCCCC1)N(C)S2(=O)=O)C(=O)O` ?
Return: 100 to 1000 nM

Enquiry: Then `CC(C)COC(=O)N[C@@H](CCc1cc2c(cc1Cl)N(c1ccccc1)C[C@@H](C1CCCCC1)N(C)S2(=O)=O)C(=O)O` ?
Return: 100 to 1000 nM

Enquiry: Then `CN1[C@H](C2CCCCC2)CN(C2CCCCC2)c2cc(Cl)c(CCC(C)(C)C(=O)O)cc2S1(=O)=O` ?
Return: < 100 nM

Enquiry: Then `CCCCN(C)C(=O)C(=O)N[C@H](CCc1cc2c(cc1Cl)N(c1ccccc1)C[C@@H](C1CCCCC1)N(C)S2(=O)=O)C(=O)O` ?
Return: 100 to 1000 nM

Enquiry: Then `CC(C)Oc1cccc(COc2cc3c(cc2C#CC2(C(=O)O)CC2)S(=O)(=O)N(C)[C@H](C2CCCCC2)CN3c2ccccc2)c1` ?
Return: 100 to 1000 nM

Enquiry: Then `CNc1cc2c(cc1C(=O)N[C@H](C(=O)O)c1ccc(C(F)(F)F)cc1)S(=O)(=O)N(C)[C@H](C1CCCCC1)CN2c1ccccc1` ?
Return: < 100 nM

Enquiry: Then `CNc1cc2c(cc1C(=O)NC(C)(C)C(=O)O)S(=O)(=O)N(C)[C@H](C1CCCCC1)CN2c1ccccc1` ?
Return: 100 to 1000 nM

Enquiry: Then `CCCCCCCCCOC(=O)N[C@@H](CCc1cc2c(cc1Cl)N(c1ccccc1)C[C@@H](C1CCCCC1)N(C)S2(=O)=O)C(=O)O` ?
Return: 100 to 1000 nM

Enquiry: Then `CCCCCOC(=O)N[C@@H](CCc1cc2c(cc1Cl)N(c1ccccc1)C[C@@H](C1CCCCC1)N(C)S2(=O)=O)C(=O)O` ?
Return: 100 to 1000 nM

Enquiry: Then `CN1[C@H](C2CCCCC2)CN(c2ccccc2)c2cc(Cl)c(C#CC(C)(C)C(=O)O)cc2S1(=O)=O` ?
Return: < 100 nM

Enquiry: Then `CCOC(=O)N[C@H](CCc1cc2c(cc1Cl)N(c1ccccc1)C[C@@H](C1CCCCC1)N(C)S2(=O)=O)C(=O)O` ?
Return: 100 to 1000 nM

Enquiry: Then `CNc1cc2c(cc1C(=O)N[C@H](C(=O)O)C1CCOCC1)S(=O)(=O)N(C)[C@H](C1CCCCC1)CN2c1ccccc1` ?
Return: > 1000 nM
